# Tested on: glycogen synthase kinase-3 (GSK3A per assay name; protocol says GSK3B)
# test-details: compounds binding glycogen synthase kinase-3 – biochemical, small-molecule microarray, 635 nm fluorescence, GSK3A, primary screen (AID 1103); note: the record names both GSK3A and GSK3B
# particulars: fluorescence 635 nm, higher = more signal
Would you please tag the item true when its composite z-score is 0.1 or above, and false when it is below?

Sample answers from the record:
INSERT INTO results (molecule, assigned_category) VALUES
  ('COC(=O)[C@@]1(Cc2ccccc2)[C@H]2c3cc(C(=O)N4CCCC4)n(Cc4c(CO)[nH]cc(C)c4=O)c3C[C@H]2CN1C(=O)c1ccccc1', 'true'),
  ('CC(C)N1CC=CC23O[C@@H]4C=CCOC(=O)[C@@H]4[C@H]2C(=O)N(CCCCCO)[C@@H]3C1=O (some centres undefined)', 'false'),
  ('CCOC(=O)C1=CC[C@@H](c2ccc(C(F)(F)F)cc2)N(S(=O)(=O)c2ccc(C)cc2)[C@H]1c1ccccc1', 'true'),
  ('O=C(NC1CC1)[C@@H]1c2ccccc2C(=O)N(Cc2cc(F)cc(C(F)(F)F)c2)[C@H]1c1ccc(CO)cc1', 'true'),
  ('CCCC1(C(=O)OC)C=C2C(=C(c3ccccc3)C(=O)C2C)CN1 (centres undefined)', 'false');

[ask] Record `COCCOC(=O)N1C(=O)[C@@]2(c3cc(C#Cc4ccc(OC)cc4)ccc31)[C@H](c1ccc(O)cc1)N1[C@H](c3ccccc3)[C@H](c3ccccc3)OC(=O)[C@H]1[C@@H]2C(=O)Nc1nc2ccccc2s1` ; criterion: composite z-score no lower than 0.1. Met?
[reply] true

[ask] Record `CCOC(=O)[C@H]1C/C=C/C[C@H](C(=O)OCC)C(=O)O[C@H]2[C@@H](OC)O[C@H](CO)[C@@H](OC(=O)c3ccc(Br)cc3)[C@@H]2OC1=O` ; criterion: composite z-score no lower than 0.1. Met?
[reply] false

[ask] Record `O=C(CS)NCCCCCNC(=O)[C@@H]1C[C@@H]2C(=O)NCC(=O)N2[C@@H]1c1ccc(O)cc1` ; criterion: composite z-score no lower than 0.1. Met?
[reply] true

[ask] Record CC1CC/C=C\[C@H]2OC34C=CCN(Cc5ccccc5)C(=O)[C@H]3N(C(C)CO)C(=O)[C@@H]4C2C(=O)O1 (some centres undefined) ; criterion: composite z-score no lower than 0.1. Met?
[reply] false

[ask] Record `C=CCNC(=O)[C@@H]1[C@H]2C(=O)O[C@H](c3ccccc3)[C@H](c3ccccc3)N2[C@H](c2ccc(OCCO)cc2)[C@@]12C(=O)N(C(=O)OCCOC)c1ccc(C#CCC(C(=O)OC)C(=O)OC)cc12` ; criterion: composite z-score no lower than 0.1. Met?
[reply] true

Data origin, for the record: PubChem BioAssay
